Reference source: ChEMBL document CHEMBL1961873

Here, each record is paired with measured inhibition data.
Molecular target: Mitogen-activated protein kinase 9 (Homo sapiens) (UniProt P45984);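 also: values are mean inhibition of JNK2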
Sequence (P45984 whole entry, looked up): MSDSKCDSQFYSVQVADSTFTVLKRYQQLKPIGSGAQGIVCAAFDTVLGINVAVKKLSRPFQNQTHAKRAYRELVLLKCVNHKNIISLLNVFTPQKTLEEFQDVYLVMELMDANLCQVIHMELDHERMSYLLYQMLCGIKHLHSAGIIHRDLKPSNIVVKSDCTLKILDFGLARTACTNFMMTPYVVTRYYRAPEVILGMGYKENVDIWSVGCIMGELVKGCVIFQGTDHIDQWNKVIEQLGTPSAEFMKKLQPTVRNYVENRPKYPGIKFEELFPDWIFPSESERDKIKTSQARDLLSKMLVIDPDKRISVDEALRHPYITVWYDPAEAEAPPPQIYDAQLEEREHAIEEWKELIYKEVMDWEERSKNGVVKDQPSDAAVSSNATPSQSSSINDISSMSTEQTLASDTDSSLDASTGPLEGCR
Settings: at 0.1 µM
Please respond with the number in % and leave the unit unwritten.

Example results:
>  <smi>
CCn1c(-c2nonc2N)nc2ccc(F)cc21

>  <resultType>
inhibition

>  <valueMeasured>
5.8

$$$$
>  <smi>
Cc1ccc(C(=O)NC2CC2)cc1-c1ccc2[nH]ncc2c1

>  <resultType>
inhibition

>  <valueMeasured>
-0.5

$$$$
>  <smi>
CCS(=O)(=O)c1ccc(OC)c(Nc2nccc(N(C)c3ccc4c(C)n[nH]c4c3)n2)c1

>  <resultType>
inhibition

>  <valueMeasured>
3.79

$$$$
>  <smi>
OCc1ccc(-c2nc(-c3ccccn3)c(-c3ccc4c(c3)OCO4)[nH]2)cc1

>  <resultType>
inhibition

>  <valueMeasured>
2.15

$$$$
>  <smi>
Nc1nccc(-c2c(-c3ccc(F)cc3)nn3cc(C(F)(F)F)ccc23)n1

>  <resultType>
inhibition

>  <valueMeasured>
2.4

$$$$
>  <smi>
c1ccc(Nc2ncc(-c3ccccc3)o2)cc1

>  <resultType>
inhibition

>  <valueMeasured>
6.78

$$$$

Per the records, this compound ( COc1cc2ncnc(Nc3ccc(C)c(O)c3)c2cc1OC ) has inhibition equal to 4.57

---

Molecular target: Cytoplasmic tyrosine-protein kinase BMX (Homo sapiens)
Sequence (whole entry): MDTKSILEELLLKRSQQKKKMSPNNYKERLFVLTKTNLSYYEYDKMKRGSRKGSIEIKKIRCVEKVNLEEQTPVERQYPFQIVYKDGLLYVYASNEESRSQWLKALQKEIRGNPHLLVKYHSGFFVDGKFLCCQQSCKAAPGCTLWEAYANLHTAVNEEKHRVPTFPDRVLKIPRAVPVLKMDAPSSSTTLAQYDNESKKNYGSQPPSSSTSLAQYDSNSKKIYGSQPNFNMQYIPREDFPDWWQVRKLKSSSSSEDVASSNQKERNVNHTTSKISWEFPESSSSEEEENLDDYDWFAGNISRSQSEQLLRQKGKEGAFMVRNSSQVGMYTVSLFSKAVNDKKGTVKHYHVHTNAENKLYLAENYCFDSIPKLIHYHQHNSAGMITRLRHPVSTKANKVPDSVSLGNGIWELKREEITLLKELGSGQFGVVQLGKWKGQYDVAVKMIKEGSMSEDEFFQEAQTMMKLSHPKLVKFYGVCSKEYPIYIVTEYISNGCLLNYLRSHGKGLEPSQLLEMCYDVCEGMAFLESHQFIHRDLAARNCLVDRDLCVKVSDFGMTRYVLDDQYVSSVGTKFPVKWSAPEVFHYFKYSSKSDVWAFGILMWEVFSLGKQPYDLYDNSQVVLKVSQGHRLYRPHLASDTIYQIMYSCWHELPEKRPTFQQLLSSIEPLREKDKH
Settings: at 0.1 µM
Description: GSK_PKIS: BMX mean inhibition at 0.1 uM [Nanosyn]
resultType: inhibition (%)
Please respond with the number in % and leave the unit unwritten.

Example results:
>  <smi>
N#Cc1cccc(Nc2nccc(-c3cnn4ncccc34)n2)c1

>  <resultType>
inhibition

>  <valueMeasured>
4.87

$$$$
>  <smi>
COC(=O)Nc1nc2cc(Oc3ccc(NC(=O)Nc4cccc(Br)c4)cc3)ccc2[nH]1

>  <resultType>
inhibition

>  <valueMeasured>
2.76

$$$$
>  <smi>
CCn1c(-c2nonc2N)nc2c(C#CC(C)(C)O)nc(OCCNC)cc21

>  <resultType>
inhibition

>  <valueMeasured>
3.16

$$$$
>  <smi>
Oc1cccc(-c2nc(-c3ccccc3)[nH]c2-c2ccncc2)c1

>  <resultType>
inhibition

>  <valueMeasured>
7.29

$$$$
>  <smi>
c1ccc(Cc2nc3ccc(Nc4ncnc5ccccc45)cc3[nH]2)cc1

>  <resultType>
inhibition

>  <valueMeasured>
5.75

$$$$

Per the records, this compound ( O=C1Nc2ccc(-c3cccnc3)cc2C1=Cc1cc(Br)c(O)c(Br)c1 ) has inhibition equal to -2.3

Per the records, this compound ( COc1ccc2ncnc(Nc3ccc(OCc4ccccc4)cc3)c2c1 ) has inhibition equal to 2.68

Per the records, this compound ( CS(=O)(=O)Nc1cccc(-c2ccc3c(NC(=O)C4CC4)n[nH]c3c2)c1 ) has inhibition equal to 4.15

Per the records, this compound ( OCc1ccc(-c2nc(-c3ccccn3)c(-c3ccc4c(c3)OCO4)[nH]2)cc1 ) has inhibition equal to -2.19

Per the records, this compound ( Cc1ccc2c(c1)/C(=N/Nc1ccc(S(N)(=O)=O)cc1)C(=O)N2 ) has inhibition equal to 1.94
